System: COLO205 colon adenocarcinoma cells (B-Raf V600E mutation)
Method Notes: COLO205 cell growth inhibition (ATPlite)
Assay type: cell-based
Reported Conditions: Homo sapiens, COLO 205, 72 h, 3 days
Listing of entries alongside the reported IC50.
Assay Readout: IC50

COCCN(C)S(=O)(=O)Nc1cccc(C(=O)c2c[nH]c3ncc(-c4cnc(C5CC5)nc4)cc23)c1F
> 1 µM
O=C(c1c(F)ccc(NS(=O)(=O)N2CC[C@@H](F)C2)c1F)c1c[nH]c2ncc(-c3cnc(C4CC4)nc3)cc12
< 1 µM
CCN(C)S(=O)(=O)Nc1ccc(F)c(C(=O)c2c[nH]c3ncc(-c4ccc(N5CCCC5)cc4)cc23)c1F
> 1 µM
CCN(CC)c1ccc(-c2cnc3[nH]cc(C(=O)c4c(F)ccc(NS(=O)(=O)N(C)CC)c4F)c3c2)cc1
< 1 µM
O=C(c1cccc(NS(=O)(=O)N2CCCC2)c1F)c1c[nH]c2ncc(-c3ccccc3)cc12
< 1 µM
CCCN(C)S(=O)(=O)Nc1cccc(C(=O)c2c[nH]c3ncc(-c4cnc(C)nc4)cc23)c1F
< 1 µM
Cc1ncc(-c2cnc3[nH]cc(C(=O)c4cccc(NS(=O)(=O)N(C)C)c4F)c3c2)cn1
< 1 µM

* * *

Listing of entries alongside the reported IC50.
Tested on: COLO205 colon adenocarcinoma cells (B-Raf V600E mutation)
Method Notes: COLO205 cell growth inhibition (ATPlite)
Format: cell-based
Reported Conditions: Homo sapiens, COLO 205, 72 h, 3 days
Assay Readout: IC50

CCN(C)S(=O)(=O)Nc1ccc(F)c(C(=O)c2c[nH]c3ncc(-c4csc(C(C)(C)O)n4)cc23)c1F
< 1 µM
CCC(C)S(=O)(=O)Nc1cccc(C(=O)c2c[nH]c3ncc(-c4cnc(C)nc4)cc23)c1F (centres unmarked)
< 1 µM
CCN(C)S(=O)(=O)Nc1ccc(F)c(C(=O)c2c[nH]c3ncc(-c4ccc(C(F)(F)F)cc4)cc23)c1F
> 1 µM
CCN(C)S(=O)(=O)Nc1ccc(F)c(C(=O)c2c[nH]c3ncc(-c4cnc(N5CCC5)nc4)cc23)c1F
< 1 µM
CCN(C)S(=O)(=O)Nc1ccc(F)c(C(=O)c2c[nH]c3ncc(-c4ccnc(F)c4)cc23)c1F
< 1 µM
CN1CCN(c2cc(-c3cnc4[nH]cc(C(=O)c5cccc(NS(=O)(=O)N6CCCC6)c5F)c4c3)ncn2)CC1
< 1 µM
O=C(c1c(F)ccc(NS(=O)(=O)N2CCCC2)c1F)c1c[nH]c2ncc(F)c(NCC3CC3)c12
< 1 µM
O=C(c1cccc(NS(=O)(=O)N2CCCC2)c1F)c1c[nH]c2ncc(-c3ccc(C(F)(F)F)nc3)cc12
< 1 µM
Cc1ncc(-c2cnc3[nH]cc(C(=O)c4cccc(NS(=O)(=O)N(C)CC5CC5)c4F)c3c2)cn1
< 1 µM
CCN(C)S(=O)(=O)Nc1cccc(C(=O)c2c[nH]c3ncc(C4CCC4)cc23)c1F
> 1 µM
CCN(C)S(=O)(=O)Nc1cccc(C(=O)c2c[nH]c3ncc(C4CC4)cc23)c1F
> 1 µM
COCCN(C)S(=O)(=O)Nc1cccc(C(=O)c2c[nH]c3ncc(-c4ccc(C5(C#N)CC5)cc4)cc23)c1F
> 1 µM
CCN(C)S(=O)(=O)Nc1cccc(C(=O)c2c[nH]c3ncc(-c4cnc(C5CC5)nc4)cc23)c1F
< 1 µM
CCC(C)S(=O)(=O)Nc1cccc(C(=O)c2c[nH]c3ncc(-c4cnc(N5CCOCC5)nc4)cc23)c1F (centres unmarked)
< 1 µM

Measured values drawn from patent US20230277534A1 for this set.
